- test_target: GST-tagged recombinant full-length human PIM-2 (Homo sapiens (Human))
- protocol: PIM-2 Enzyme Assay
- reported_conditions: read-out: PIM-2 IC50; 4 μM ATP, […] PIM-2
pIC50: −log10 of the molar value. Where a name gives a salt, the structure may show the parent alone.
We use 6 as the dividing line for pIC50: on or above the line is 1, below is 0.

c1cc(OCC2CCNCC2)c2nc(-c3nnc4ccccn34)ccc2c1	1
OCC(O)COc1cccc2ccc(-c3nnc4ccccn34)nc12 (centres unmarked)	0
Nc1nccc(Oc2cccc3ccc(-c4nnc5ccccn45)nc23)n1	0
Fc1cc(OC2CCNCCC2F)c2nc(-c3nnc4ccccn34)ccc2c1 (single isomer, unassigned) [Example 90]	1
COC1(COc2cccc3ccc(-c4nnc5ccccn45)nc23)CCCNCC1 (centres unmarked) [Example 117, dihydrochloride]	1

----------
- Test system: BaF3 TEL-JAK2 (Mouse pro-B-cell transformed with TEL-JAK2 fusion)
- protocol: Cellular Proliferation Assay, cell line G
- Format: cell-based
- reported_conditions: BaF3 TEL-JAK2, 72 hours, CelltiterBlue, read-out: Cell Line G antiproliferative IC50
Structures can show the parent of a compound that is named as a salt.
Listing of entries alongside the reported IC50.
measured_property: IC50

c1cc(OCC2CCCNC2)c2nc(-c3nnc4ccccn34)ccc2c1 (centres unmarked)	< 2000 nM
N[C@H]1CC[C@H](Oc2cccc3ccc(-c4nnc5ccccn45)nc23)CC1	< 2000 nM
CC(C)(CN)COc1cccc2ccc(-c3nnc4ccccn34)nc12	< 2000 nM
F[C@@H]1CNCCC1Oc1cccc2ccc(-c3nnc4ccccn34)nc12 (stereo in doubt) [Example 26, dihydrochloride]	< 2000 nM
c1cc(NC2CCNCC2)c2nc(-c3nnc4ccccn34)ccc2c1	< 2000 nM

----------
A collection of molecules and their measured pIC50
- test_target: PIM-1 (Homo sapiens (Human))
- Sequence (P11309 whole entry, species assumed): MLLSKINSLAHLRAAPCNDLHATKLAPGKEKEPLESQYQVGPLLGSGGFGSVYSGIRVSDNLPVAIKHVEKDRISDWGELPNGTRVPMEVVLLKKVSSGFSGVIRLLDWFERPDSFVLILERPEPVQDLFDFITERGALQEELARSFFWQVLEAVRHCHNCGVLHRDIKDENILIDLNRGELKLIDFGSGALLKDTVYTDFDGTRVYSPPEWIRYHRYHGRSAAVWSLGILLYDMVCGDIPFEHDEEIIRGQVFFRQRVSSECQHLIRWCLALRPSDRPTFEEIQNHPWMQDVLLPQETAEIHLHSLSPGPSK
- protocol: PIM-1 Enzyme Assay
- Type: biochemical
pIC50: −log10 of the molar value. Structures can show the parent of a compound that is named as a salt.
measured_property: pIC50

CC(C)(CN)COc1cccc2ccc(-c3nnc4ccc(C5CC5)cn34)nc12 [Example 64, dihydrochloride]	9.19
F[C@@H]1CNCC[C@@H]1Oc1cccc2ccc(-c3nnc4ccc(-c5ccccc5)cn34)nc12 (relative stereo) [Example 82, dihydrochloride]	8.52
F[C@@H]1CNCCC1Oc1cccc2ccc(-c3nnc4ccccn34)nc12 (stereo in doubt) [Example 26, dihydrochloride]	8.52
c1cc(OCC2(CC3CC3)CCNCC2)c2nc(-c3nnc4ccccn34)ccc2c1 [Example 69, dihydrochloride]	8.80
OC[C@@H]1C[C@@H](Oc2cccc3ccc(-c4nnc5ccccn45)nc23)CCN1 [Example 56, dihydrochloride]	8.05
FC1(COc2cccc3ccc(-c4nnc5ccccn45)nc23)CCNCC1 [Example 66, dihydrochloride]	9.10
FC1(COc2cccc3ccc(-c4nnc5ccc(-c6ccccc6)cn45)nc23)CCNCC1 [Example 81, dihydrochloride]	9.35

----------
- test_target: GST-tagged recombinant full-length human PIM-2 (Homo sapiens (Human), UniProt Q9P1W9)
- Sequence (Q9P1W9 whole entry): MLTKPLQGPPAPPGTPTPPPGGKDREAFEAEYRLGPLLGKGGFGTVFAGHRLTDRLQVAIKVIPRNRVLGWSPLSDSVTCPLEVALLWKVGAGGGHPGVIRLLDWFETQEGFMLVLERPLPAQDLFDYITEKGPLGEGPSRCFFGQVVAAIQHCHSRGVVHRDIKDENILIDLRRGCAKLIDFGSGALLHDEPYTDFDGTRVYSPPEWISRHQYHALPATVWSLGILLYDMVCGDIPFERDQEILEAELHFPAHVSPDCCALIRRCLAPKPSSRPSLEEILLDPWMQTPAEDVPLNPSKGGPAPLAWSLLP
- protocol: PIM-2 Enzyme Assay
- reported_conditions: read-out: PIM-2 IC50; 4 μM ATP, […] PIM-2
Structures can show the parent of a compound that is named as a salt.
measured_property: IC50 (nM)

COC(=O)[C@@H]1C[C@@H](Oc2cccc3ccc(-c4nnc5ccccn45)nc23)CCN1	189
Fc1cc(OC2CCNCC2(F)F)c2nc(-c3nnc4ccccn34)ccc2c1 (stereo not shown) [Example 93, dihydrochloride]	506
CC(C)(CN)COc1cc(F)cc2ccc(-c3nnc4ccccn34)nc12	26
COC1(COc2cc(F)cc3ccc(-c4nnc5ccccn45)nc23)CCCNCC1 (stereo not shown) [Example 114, bis-trifluoroacetate]	86
